Tested on: A549 human non-small-cell lung carcinoma cells
assay_remarks: In vitro cytotoxicity (Microculture Tetrazolium Assay), A549
Assay type: cell-based
details: 96 h, A549, 4 days incubation, read-out: IC50, concentration that inhibits the proliferation of the treated cells by 50%
parameter: IC50 (nM)
Write it as a number; the unit nM goes unstated.

Query IC50 on A549 human non-small-cell lung carcinoma cells for `O=C1c2scc(-c3ccc(O)c(O)c3)c2-n2cccc21`
122
